Test system: TOV21G ovarian cancer cells
Format: cell-based
Settings: TOV21G; each drug alone; 48 h

{"compound": "N.N.[Cl][Pt][Cl] [cisplatin, reference compound]", "test_target": "TOV21G ovarian cancer cells", "IC50": "3000 nM"}
